# tested_target: rCPB2.8 (Leishmania mexicana, UniProt P36400)
# Construct: recombinant enzymes (r) lacking the C-terminal region
# Sequence (P36400 126-343): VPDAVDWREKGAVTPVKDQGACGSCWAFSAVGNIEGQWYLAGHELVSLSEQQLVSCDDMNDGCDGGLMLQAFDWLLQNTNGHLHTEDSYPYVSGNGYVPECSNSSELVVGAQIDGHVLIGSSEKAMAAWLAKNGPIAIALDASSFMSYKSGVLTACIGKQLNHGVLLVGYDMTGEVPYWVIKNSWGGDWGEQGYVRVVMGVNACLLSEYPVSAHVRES
# test_method_notes: Determination of IC50 on rCPB2.8 (Z-FR-AMC)
Overview of reported IC50 across a group of molecules:
Your answer is read as µM, so omit the unit and give the number.

O=C(/C=C/c1ccc2c(c1)OCO2)c1cc(Cl)ccc1O ... 18.4
CN(C)c1ccc(-c2oc3ccccc3c(=O)c2O)cc1 [f12c] ... 10.3
COc1ccc(/C=C/C(=O)c2cc(F)ccc2O)cc1 ... 3.35

Task: What is its IC50 for rCPB2.8 (Leishmania mexicana, UniProt P36400)? Entry: `O=C(/C=C/c1ccc2c(c1)OCO2)c1ccc(Cl)cc1`
Result: 7.42

Task: Tell me reported IC50 for `CN(C)c1ccc(/C=C/C(=O)c2ccccc2O)cc1` , tested with rCPB2.8 (Leishmania mexicana, UniProt P36400).
Result: 11.7

---

# System: NIH/3T3 fibroblasts
# test_method_notes: Cytotoxicity on mammalian cells (sulphorhodamine B)
# Format: cell-based
# condition_parameters: 48 h, concentration that inhibited cell growth by 50%
Binary classification by NIH/3T3 Cells GL50, with 800 µM as an inclusive lower bound for yes (1); all other cases are no (0).

CN(C)c1ccc(/C=C/C(=O)c2ccc(Cl)cc2)cc1 ... yes (1)
O=C(/C=C/c1ccc2c(c1)OCO2)c1cc(Cl)ccc1O ... no (0)
O=C(/C=C/c1ccc2c(c1)OCO2)c1ccccc1O ... yes (1)
CN(C)c1ccc(/C=C/C(=O)c2ccccc2O)cc1 ... yes (1)

We now examine a further compound.
Task: Does `O=C(/C=C/c1ccc2c(c1)OCO2)c1cc(F)ccc1O` have a reported NIH/3T3 Cells GL50 of at least 800 µM?
Result: yes (1)

---

# tested_target: rCPB2.8 (Leishmania mexicana)
# Construct: recombinant enzymes (r) lacking the C-terminal region
# test_method_notes: Determination of IC50 on rCPB2.8 (Z-FR-AMC)
# Type: biochemical
# Protocol: Cysteine proteases rCPB2.8, rCPB3, and rH84Y were assayed in 100 mM sodium acetate buffer containing 5 mM EDTA, 100 mM NaCl, 0.01% Triton X-100, and 20% glycerol, at pH 5.5. […] Enzyme activities were monitored using fluorogenic probe Z-FR-AMC (9.25 µM final concentration), and the fluorescence was monitored by spectrofluorometry using fluorometer F2700 (Hitachi, Tokyo, Japan) set to λEx = 360 nm and λEm = 480 nm. […]
Reported pIC50 values follow for various molecules
Entry type: numeric. Quantity: pIC50, the -log10 of concentration in molar units.

CN(C)c1ccc(/C=C/C(=O)c2cc(F)ccc2O)cc1 ... 5.01
CN(C)c1ccc(-c2oc3ccc(Cl)cc3c(=O)c2O)cc1 [f13c] ... 4.85
CN(C)c1ccc(/C=C/C(=O)c2cc(Cl)ccc2O)cc1 ... 5.40
O=c1c(O)c(-c2ccc3c(c2)OCO3)oc2ccccc12 [Compound f12b] ... 5.28
COc1ccc(/C=C/C(=O)c2ccccc2O)cc1 ... 5.63

Task: GET /values?readout=pIC50&system=rCPB2.8 (Leishmania mexicana)&item= `COc1ccc(/C=C/C(=O)c2ccc(Cl)cc2)cc1`
Result: 4.86

Task: Form field - read-out: pIC50; system: rCPB2.8 (Leishmania mexicana); submitted item: COc1ccc(-c2oc3ccc(Cl)cc3c(=O)c2O)cc1 [f13a]
Result: 5.73

---

# Test system: NIH/3T3 fibroblasts
# test_method_notes: Cytotoxicity on mammalian cells (sulphorhodamine B)
# Type: cell-based
# condition_parameters: 48 h, concentration that inhibited cell growth by 50%
Quick list: NIH/3T3 Cells GL50 per entry.
State just the number; it will be interpreted in µM.

Use these answered entries as a reference point.
COc1ccc(/C=C/C(=O)c2ccccc2O)cc1 ... 940.14
COc1ccc(/C=C/C(=O)c2ccc(Cl)cc2)cc1 ... 294.13
COc1cccc2c1C(=O)c1c(O)c3c(c(O)c1C2=O)C[C@@](O)(C(=O)CO)C[C@@H]3O[C@H]1C[C@H](N)[C@H](O)[C@H](C)O1 [Doxorubicin, reference compound] ... 0.05
COc1ccc(/C=C/C(=O)c2cc(F)ccc2O)cc1 ... 901.09
O=C(/C=C/c1ccc2c(c1)OCO2)c1ccc(Cl)cc1 ... 811.27

Proceed to the following item.
Task: Return NIH/3T3 Cells GL50 measured with NIH/3T3 fibroblasts given this compound: CN(C)c1ccc(-c2oc3ccccc3c(=O)c2O)cc1 [f12c]
Result: 759.13

---

# tested_target: rCPB2.8 (Leishmania mexicana, UniProt P36400)
# Construct: recombinant enzymes (r) lacking the C-terminal region
# test_method_notes: Determination of IC50 on rCPB2.8 (Z-FR-AMC)
# Procedure: Cysteine proteases rCPB2.8, rCPB3, and rH84Y were assayed in 100 mM sodium acetate buffer containing 5 mM EDTA, 100 mM NaCl, 0.01% Triton X-100, and 20% glycerol, at pH 5.5. […] Enzyme activities were monitored using fluorogenic probe Z-FR-AMC (9.25 µM final concentration), and the fluorescence was monitored by spectrofluorometry using fluorometer F2700 (Hitachi, Tokyo, Japan) set to λEx = 360 nm and λEm = 480 nm. […]
Below, each entry is listed alongside its reported pIC50.
pIC50 here is simply -log10 of the concentration when that concentration is written in mol/L.

Below, 4 compounds whose answers are already recorded.
COc1ccc(/C=C/C(=O)c2cc(Cl)ccc2O)cc1 ... 5.15
CN(C)c1ccc(/C=C/C(=O)c2ccc(Cl)cc2)cc1 ... 5.56
O=C(/C=C/c1ccc2c(c1)OCO2)c1ccccc1O ... 4.69
O=C(/C=C/c1ccc2c(c1)OCO2)c1cc(F)ccc1O ... 5.18

Next, consider the following compound.
Task: Which value of pIC50 has been reported for COc1ccc(-c2oc3ccccc3c(=O)c2O)cc1 [f12a] in the records?
Result: 5.33

---

# Test system: NIH/3T3 fibroblasts
# test_method_notes: Cytotoxicity on mammalian cells (sulphorhodamine B)
# Assay type: cell-based
# condition_parameters: 48 h, concentration that inhibited cell growth by 50%
observed_property: NIH/3T3 Cells GL50

Record excerpt, results attached:
COc1ccc(-c2oc3ccc(Cl)cc3c(=O)c2O)cc1 [f13a] ... >825.87 µM
CN(C)c1ccc(/C=C/C(=O)c2cc(F)ccc2O)cc1 [Compound 4c] ... >876.24 µM
CN(C)c1ccc(-c2oc3ccc(Cl)cc3c(=O)c2O)cc1 [f13c] ... >791.76 µM
COc1ccc(/C=C/C(=O)c2cc(Cl)ccc2O)cc1 [Compound 3a] ... >865.86 µM

Task: Give its NIH/3T3 Cells GL50 value. Item: COc1ccc(-c2oc3ccccc3c(=O)c2O)cc1 [f12a]
Result: >931.93 µM

Task: GET /values?readout=NIH/3T3 Cells GL50&item= CN(C)c1ccc(/C=C/C(=O)c2cc(Cl)ccc2O)cc1 [Compound 3c]
Result: >828.44 µM

Task: # input molecule: O=c1c(O)c(-c2ccc3c(c2)OCO3)oc2ccccc12 [Compound f12b] ; wanted: its NIH/3T3 Cells GL50
Result: >885.74 µM
